B1: SPOPL (parent)
chain: PDDKLTLFCEVSVVQDSVNISGHT

variants of: B1; assay: protein stability index of a GFP-peptide fusion (GPS, HEK-293T) (PSI 1-6); higher = more stable; settings: c terminus: a fixed tail appended;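 note: lentivirally expressed fusions sorted by FACS into six bins by GFP to DsRed ratio, PSI derived from sequencing read proportions per bin multiplied by bin number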
For each record, write down the corresponding protein stability index.
Answers are plain numbers.

Solved entries (count: 6):
sequence entry | protein stability index
PDDQLTLFCEVSVVQDSVNISGHT [K4Q] | 2.16
PDDKLTLFCEVSVVQDSVNISGHK [T24K] | 3.16
PDFKLTLFCEVSVVQDSVNISGHT [D3F] | 1.87
PADKLTLFCEVSVVQDSVNISGHT [D2A] | 1.61
PDDKLTLFCEVSVVQDHVNISGHT [S17H] | 1.38
PDDKLTLFCEVSVVQDSVNISGPT [H23P] | 2.26

Please state, for each entry, its recorded protein stability index.
1. PDDKLTLFCEVSVVQDSCNISGHT [V18C]
2. PDDKLTLFCEVSVVQDSVNISGWT [H23W]

[1.85, 5.02]

Please state, for each entry, its recorded protein stability index.
1. PDDKLTWFCEVSVVQDSVNISGHT [L7W]
2. PDDKLTLFCEVSVVQDSVNVSGHT [I20V]
3. PDDKLTLVCEVSVVQDSVNISGHT [F8V]
4. PDDKLTLFCLVSVVQDSVNISGHT [E10L]

1. 1.75
2. 2.55
3. 1.97
4. 3.02

Please state, for each entry, its recorded protein stability index.
1. PDDKLTLFCEVSVVQDSINISGHT [V18I]
2. PIDKLTLFCEVSVVQDSVNISGHT [D2I]
3. PDDKLTLFCEVSVVQDSVNWSGHT [I20W]
4. PDDKLTLFCEVSVVQDNVNISGHT [S17N]
5. PDDKYTLFCEVSVVQDSVNISGHT [L5Y]
6. PDDHLTLFCEVSVVQDSVNISGHT [K4H]
7. PDDKLTLFCEVSVVQHSVNISGHT [D16H]

[2.09, 2.02, 2.04, 1.84, 2.28, 1.95, 1.15]

Please state, for each entry, its recorded protein stability index.
1. PDDKLTLFCEVSVVQDSVNCSGHT [I20C]
2. PDDKLTLFCEVSVVQDTVNISGHT [S17T]
3. PDDKLTLFCEVSVVQDDVNISGHT [S17D]

1. 2.86
2. 1.85
3. 3.11
